Experiment: qHTS assay for small molecule agonists of the antioxidant response element (ARE) signaling pathway - cell viability counter screen (AID 743203); further: on the % scale 0 is the no-effect control and ±100 the full control effect; nearly all actives have a fitted effect of over 55% in size
Details: ARE-bla HepG2 viability, CellTiter-Glo luminescence, 16 h; series mostly up to 73.3 µM
Results filed as inconclusive are left out. Active and inactive are the calls of the source. The call rests on the fitted dose curve.
value-type: viability change, negative = cytotoxic

• CN(C)c1ccc(/C=C/c2ccc([N+](=O)[O-])cc2)cc1 = 0.634% [at 8.36 µM] (inactive)
• O=C(O)CNCC(=O)O = 1.43% [at 8.36 µM] (inactive)
• Brc1c2ccccc2c(Br)c2ccccc12 = 3.8% [at 8.36 µM] (inactive)
• C/C(=C(\CCOP(=O)(O)O)SC(=O)c1ccccc1)N(C=O)Cc1cnc(C)nc1N = 8.52% [at 8.36 µM] (inactive)

Lookup result for `NC(N)=NCCC[C@H](N)C(=O)O` ; measured viability change, negative = cytotoxic: 9.06% [at 8.36 µM] (inactive)

---

Experiment: qHTS assay to identify small molecule agonists of the estrogen related receptor (ERR) signaling pathway from Tox21 library (AID 1224849); further: on the % scale 0 is the no-effect control and ±100 the full control effect; nearly all actives have a fitted effect of over 15% in size
Settings: ERR reporter cell line, ONE-Glo luciferase, 18 h; at 92.4 µM (top of the series) unless noted
Calls of active or inactive are those of the source. Calls come from the whole dose curve.
value-type: activity change, positive = activation

* CC(C)OC(=O)C(C)N(C(=O)c1ccccc1)c1ccc(F)c(Cl)c1 (stereo unspecified) | -51.7% (inactive)
* CCCCCCOC(=O)NC(=N)c1ccc(NCc2nc3cc(C(=O)N(CCC(=O)OCC)c4ccccn4)ccc3n2C)cc1 | -64.4% [at 42.5 µM] (inactive)
* COc1ccc(C(=O)Nc2nc3ccccc3c(NCc3ccccc3)c2C#N)cc1 | -5.4% (inactive)
* CCOC(=O)C(O)c1ccccc1 (stereo unspecified) | 3.78% [at 42.5 µM] (inactive)
* OC(C#CCN1CCCC1)(c1ccccc1)c1ccccc1 | -10.1% [at 42.5 µM] (inactive)

Now consider a different molecule.
// activity change, positive = activation value for `Nc1ccc([N+](=O)[O-])c(C(F)(F)F)c1` : -17.3% [at 42.5 µM] (inactive)

---

Target: Aryl hydrocarbon receptor (Homo sapiens) (UniProt P35869)
Sequence (P35869 whole entry, looked up): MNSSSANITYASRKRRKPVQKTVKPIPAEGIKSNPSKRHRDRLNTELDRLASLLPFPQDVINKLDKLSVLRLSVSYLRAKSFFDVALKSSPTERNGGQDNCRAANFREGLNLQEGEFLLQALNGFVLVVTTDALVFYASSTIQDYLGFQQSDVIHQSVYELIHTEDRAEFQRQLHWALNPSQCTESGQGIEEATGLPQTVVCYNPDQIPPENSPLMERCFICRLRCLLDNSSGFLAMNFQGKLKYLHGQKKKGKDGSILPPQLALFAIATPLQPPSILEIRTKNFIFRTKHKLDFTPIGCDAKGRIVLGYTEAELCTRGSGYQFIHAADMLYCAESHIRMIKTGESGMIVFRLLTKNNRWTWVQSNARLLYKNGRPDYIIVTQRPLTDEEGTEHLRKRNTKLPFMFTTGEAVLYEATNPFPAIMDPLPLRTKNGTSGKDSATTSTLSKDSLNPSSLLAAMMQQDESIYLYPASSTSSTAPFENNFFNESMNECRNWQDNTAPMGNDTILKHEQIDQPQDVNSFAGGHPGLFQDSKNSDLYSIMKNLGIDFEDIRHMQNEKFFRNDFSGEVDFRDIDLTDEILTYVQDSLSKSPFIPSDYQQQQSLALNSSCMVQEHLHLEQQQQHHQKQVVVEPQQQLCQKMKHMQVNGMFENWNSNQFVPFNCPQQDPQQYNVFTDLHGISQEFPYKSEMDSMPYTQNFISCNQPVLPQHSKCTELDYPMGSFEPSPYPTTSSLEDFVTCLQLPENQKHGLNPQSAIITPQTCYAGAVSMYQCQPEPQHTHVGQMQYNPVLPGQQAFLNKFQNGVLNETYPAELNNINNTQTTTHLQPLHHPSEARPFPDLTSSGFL
Assay: qHTS assay to identify small molecule that activate the aryl hydrocarbon receptor (AhR) signaling pathway (AID 743085); further: nearly all actives have a fitted effect of over 15% in size; further: potency means the concentration at half of the fitted maximal effect;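 on activation: HG2L7.5c1 human HepG2 liver cells with stably integrated DRE-driven firefly reporter; on the % scale 0 is the no-effect control and ±100 the full control effect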
Details: HepG2 AhR-luc (HG2L7.5c1), luciferase, 24 h; series mostly up to 70.3 µM
Results filed as inconclusive are left out. Activity calls are given as the source filed them. Calls come from the whole dose curve; as a rule, active = well fitted activation curve with a large enough effect in the repeat runs; inconclusive = weak or mixed curves; inactive = no such curve, though single readings can be large or run the other way.
value-type: Potency

- C=CC(=O)OCCOCCOCCOCCOC(=O)C=C: inactive
- C[N+]1(CC2COC(c3ccccc3)(C3CCCCC3)O2)CCCCC1 (stereo not given): inactive
- CCOCC(O)COc1ccc(NC(=O)CC[S+](C)C)cc1 (stereo not given): 5.31 µM (active)
- CO[C@@H]1[C@H](OC(=O)/C=C/C=C/C=C/C=C/C(=O)O)CC[C@]2(CO2)[C@H]1[C@@]1(C)O[C@@H]1CC=C(C)C: inactive

With those in mind, consider the next compound.
So, `Nc1c(CC(=O)O)cccc1C(=O)c1ccc(Br)cc1` ? Its Potency was inactive

---

Experiment: Human pregnane X receptor (PXR) small molecule agonists, qHTS cell viability counter screen (AID 1346977); further: nearly all actives have a fitted effect of over 50% in size
Conditions: PXR-Luc HepG2 viability, CellTiter-Fluor, 24 h; series mostly up to 92.4 µM
Inconclusive results are not listed. Active and inactive are the calls of the source. Calls follow the shape of the dose curve; as a rule, active = well fitted cell-killing curve with a large enough effect in the repeat runs; inconclusive = weak or mixed curves, or effect the other way; inactive = flat fitted curve, though single readings scatter.
Thanks in advance; please answer with one of these: 1 (yes) (active), 0 (no) (inactive)

- O=C(O)c1nc(Cl)c(Cl)c(Cl)c1Cl: 0 (no)
- COc1ccc(C)cc1[N+](=O)[O-]: 0 (no)
- CCO[C@H](Cc1ccc(OCCc2ccc(OS(C)(=O)=O)cc2)cc1)C(=O)O: 0 (no)
- c1cc(CCCc2ccncc2)ccn1: 0 (no)
- CCCCc1ncc(/C=C(\Cc2cccs2)C(=O)O)n1Cc1ccc(C(=O)O)cc1: 0 (no)

Inquiry: What call does the record list for `Nc1ncn([C@H]2C[C@H](O)[C@@H](CO)O2)c(=O)n1` ?
Reply text: 0 (no)

Inquiry: Kindly provide the recorded test outcome for the following molecule: `O=C1c2ccccc2S(=O)(=O)N1CCCCN1CCN(c2ncccn2)CC1`
Reply text: 0 (no)

Inquiry: So what was the verdict on `CCOc1ccc(N)c([N+](=O)[O-])c1` in this test?
Reply text: 0 (no)

Inquiry: Each molecule tested received a call. Report the one for `C[C@H](CCC(=O)O)[C@H]1CC[C@H]2[C@@H]3CC[C@@H]4C[C@H](O)CC[C@]4(C)[C@H]3C[C@H](O)[C@]12C` .
Reply text: 0 (no)

Inquiry: # lookup: test call for `C=C1[C@H]2CC[C@@H]3[C@H]2C(C)(C)CCC[C@]13C`
Reply text: 0 (no)

Inquiry: Recorded call for `CCCCCCCC/C=C\CCCCCCCC(=O)OCC` ?
Reply text: 0 (no)

Inquiry: Test call for this molecule, please: `NCC(=O)CCC(=O)O`
Reply text: 0 (no)

Inquiry: GET /call?item= `CCCCCCCCCCCc1ccccc1` returns the recorded outcome of this test.
Reply text: 0 (no)

Inquiry: # fetch the recorded call for `COCCCN1CCC(NC(=O)c2cc(Cl)c(N)c3c2OCC3)CC1` here
Reply text: 0 (no)

Inquiry: Hello, I am checking results. What call was entered for `COc1ccc(S(=O)(=O)N2C(=O)[C@@](c3ccccc3OC)(N3C[C@H](O)C[C@H]3C(=O)N(C)C)c3cc(Cl)ccc32)c(OC)c1` ?
Reply text: 1 (yes)

Inquiry: In this assay, the call recorded for `c1ccc(-c2ccccn2)nc1` was what?
Reply text: 0 (no)

Inquiry: Hey, what did the test say about `CCCCNc1ccc(C(=O)OCCOCCOCCOCCOCCOCCOCCOCCOCCOC)cc1` ?
Reply text: 0 (no)

Inquiry: Name the outcome recorded for `CCCCCCc1ccc(-c2ccc(C#N)cc2)cc1` in the assay.
Reply text: 0 (no)

Inquiry: Called result for `CCCCO`
Reply text: 0 (no)

Inquiry: Please share the test call associated with `CCCCC1=NC2(CCCC2)C(=O)N1Cc1ccc(-c2ccccc2-c2nn[nH]n2)cc1` .
Reply text: 0 (no)

Inquiry: Assay result, entry `Nc1c(CC(=O)O)cccc1C(=O)c1ccc(Br)cc1` — outcome?
Reply text: 0 (no)

Inquiry: Dear all, I need the recorded test outcome for OC(CN1CCC(Cc2ccc(F)cc2)CC1)c1ccc(Cl)cc1 (stereo unspecified) , thank you.
Reply text: 1 (yes)

Inquiry: So what was the verdict on `C[C@@H]1C[C@H]2O[C@@]3(O[C@@H]2C(C)(C)O)[C@H](O)[C@@]2(C)[C@@H]4CC[C@H]5C(C)(C)[C@@H](O[C@@H]6OC[C@@H](O)[C@H](O)[C@H]6O)CC[C@@]56C[C@@]46CC[C@]2(C)[C@@H]13` in this test?
Reply text: 0 (no)

Inquiry: For this molecule, state the assay outcome: `CCN(CC)c1ccc(C(=C2C=CC(=[N+](CC)CC)C=C2)c2cc(S(=O)(=O)O)ccc2S(=O)(=O)[O-])cc1`
Reply text: 1 (yes)
